Tested on: SK-MEL-28 melanoma
Test: NCI-60 one-dose screen, 48 h (100 = growth as untreated, 0 = no growth, -100 = all killed)
Conditions: 10 µM
Procedure: Growth inhibition of the SK-MEL-28 human tumor cell line is measured as a screen for anti-cancer activity. Cells are grown in 96 well plates and exposed to the test compound for 48 hours. Compounds are tested at a single concentration, which is 10^-5 M for most compounds. The reported endpoint is percent growth (GI% or GIPRCNT), where numbers from 0 - 100% represent growth inhibition, and numbers from -100% - 0 represent cell death. For example, a value of 40 represents 60% growth inhibition. […]
About 83,000 compounds went through this panel and 20% of them were active in at least one assay; those are over-represented in the sample as a whole.
The threshold is 80%. Values of growth beneath it are tagged criterion met; values meeting or exceeding it are tagged criterion not met.

- compound: "NC1=NC(c2ccccc2Cl)N=C(Nc2nn[nH]n2)N1 (stereo unspecified)"
  assignedLabel: "criterion not met"
- compound: "CC(C)(C)Nc1nc2cc(Cl)c(Cl)cc2nc1S(C)(=O)=O"
  assignedLabel: "criterion met"
- compound: "Cc1ccc(NC(=O)NCn2c(=O)[nH]c3ccccc3c2=O)cc1"
  assignedLabel: "criterion not met"
- compound: "CC1=N/C(=C\\c2ccc(N(C)C)cc2)C(=O)N1CCc1ccc(S(N)(=O)=O)cc1"
  assignedLabel: "criterion not met"
- compound: "N#Cc1c(NC(=O)c2ccc(C(F)(F)F)cc2)sc2c1CCC(O)=C2"
  assignedLabel: "criterion met"

* * *

Test system: OVCAR-3 ovarian
Assay: NCI-60 one-dose screen, 48 h (100 = growth as untreated, 0 = no growth, -100 = all killed)
Conditions: 10 µM
About 83,000 compounds went through this panel and 20% of them were active in at least one assay; those are over-represented in the sample as a whole.

- molecule: "CC1(C)CC[C@]2(C(=O)N3CCOCC3)CC[C@]3(C)C(=CC[C@@H]4[C@@]5(C)CC[C@H](NCO)C(C)(C)[C@@H]5CC[C@]43C)[C@H]2C1"
  growth, %: -82.7
- molecule: "Cc1ccc(CNC(=O)Cc2ccc3c(c2)CN(C2CCC(=O)NC2=O)C3=O)cc1 (centres undefined)"
  growth, %: 6.03
- molecule: "COc1ccc2[nH]c(O)c(N=NC(=O)COc3ccc(NC(=O)Nc4ccc(Cl)cc4)cc3)c2c1"
  growth, %: -30.6
- molecule: "O=C1Nc2cc(Cl)ccc2/C1=C/c1cccc(OCc2ccccc2)c1"
  growth, %: -5.96
- molecule: "CC1(C)CC[C@]2(C(=O)Nc3ccccc3)CC[C@]3(C)C(=CC[C@@H]4[C@@]5(C)CC[C@H](N)C(C)(C)[C@@H]5CC[C@]43C)[C@H]2C1"
  growth, %: 105
- molecule: "CCOc1ccc2ncc(C#Cc3cncc(C(=O)Nc4ccc(CN5CCN(C)CC5)c(C(F)(F)F)c4)c3)n2n1"
  growth, %: -79.1
- molecule: "O=c1[nH][nH]c(Nc2ccccc2)c1N=Nc1ccc(F)cc1"
  growth, %: 103
- molecule: "COC(=O)C(Cc1ccc(O)c(O)c1)NC(=O)C(CSC/C=C(\\C)CCCC(C)CCCC(C)CCCC(C)C)NC(C)=O (centres undefined)"
  growth, %: 34.8
- molecule: "CCOC(=O)c1sc(N/N=C(\\C)c2ccc3c(c2)Nc2ccccc2S3)nc1C"
  growth, %: 46.1
- molecule: "Cc1nc(Nc2nc(C)c3ccc(OCCN4CCOCC4)cc3n2)[nH]c(=O)c1C"
  growth, %: 3.38
- molecule: "Nc1n[nH]c2cccc(C#Cc3cccc(NC(=O)Nc4cc(C(F)(F)F)cc(C(F)(F)F)c4)c3)c12"
  growth, %: -20.4
- molecule: "CN1C(=O)N(C)C2SC(N/N=C/c3ccccc3F)=NC21 (centres undefined)"
  growth, %: 6.19
- molecule: "Cc1ccc(/C=C/C(=O)c2ccc(NC(=O)CSc3nnc(-c4c[nH]c5ccccc45)n3-c3ccccc3)cc2)c(C)c1"
  growth, %: 32
- molecule: "CC1CC(c2ccc(N(C)C)cc2)=NN1c1nc(O)c(C2=c3cc(Br)ccc3=NC2=O)s1 (centres undefined)"
  growth, %: 73.6
- molecule: "Cc1ccn2c(C(=O)c3ccc(Br)cc3)cc(-c3cc(-c4ccc(N(C)C)cc4)c(C#N)c(N)n3)c2c1"
  growth, %: 50.2
- molecule: "CC1(c2ccccc2)NC(=O)N(CC(=O)Nc2ccc(C(=O)/C=C/c3ccccc3)cc2)C1=O (centres undefined)"
  growth, %: 37.7
- molecule: "O=c1[nH]c2ccccc2cc1CSc1ccc(Nc2nccc(-c3ccc(Cl)cc3)n2)cc1"
  growth, %: -73.9
- molecule: "COc1ccc(N2N=C(c3ccc4c(c3)OCCO4)CC2c2cccc(NC(=O)CCCNS(=O)(=O)c3ccc(F)cc3)c2)cc1 (centres undefined)"
  growth, %: 81.3
- molecule: "Cc1cccc(-c2nc(Nc3ccccc3C(=O)O)c3ccccc3n2)c1"
  growth, %: 34.1
- molecule: "COc1ccc(C2N(c3ccc(Br)cc3)N=C(C(C)=O)N2[C@H]2[C@H](OC(C)=O)O[C@H](COC(C)=O)[C@@H](OC(C)=O)[C@@H]2OC(C)=O)cc1 (some centres undefined)"
  growth, %: 73.2
- molecule: "CO[C@@H]1CSS[C@H]1Cn1nc(-c2ccc(Oc3ccccc3)cc2)c2c(N)ncnc21"
  growth, %: 104
- molecule: "CC(C)c1ccc(C(=O)Nc2sc3c(c2C(N)=O)CCC(=O)C3=O)cc1"
  growth, %: 87
- molecule: "COc1ccc(-c2nc(Nc3ccccc3S(N)(=O)=O)c3ccccc3n2)cc1"
  growth, %: -20.6
- molecule: "CC1(C)CC[C@]23CC[C@]4(C)[C@H](CC[C@@H]5[C@@]6(C)CC[C@H](N)C(C)(C)[C@@H]6CC[C@]54C)[C@H]2[C@H]1OC3=O"
  growth, %: -81
- molecule: "NS(=O)(=O)c1ccc(N=Nc2c(O)n(CC(=O)Nc3ccccc3Br)c3ccccc23)cc1"
  growth, %: 45.7
- molecule: "O=C(CSc1nnc(-c2c[nH]c3ccccc23)n1-c1ccccc1)Nc1ccc(C(=O)/C=C/c2cccc([N+](=O)[O-])c2)cc1"
  growth, %: 103
- molecule: "O=C1CCC(N2Cc3cc(NC(=O)COc4ccccc4)ccc3C2=O)C(=O)N1 (centres undefined)"
  growth, %: 85.8
- molecule: "COc1nccnc1NS(=O)(=O)c1ccc(NC2=C(Cl)C(=O)c3nc(C)ccc3C2=O)cc1"
  growth, %: 83.2
- molecule: "COc1cc(/C=C/C(=O)c2ccc(F)cc2)ccc1Oc1nc(Nc2ccc(F)cc2)nc(N(C)C)n1"
  growth, %: 64.2
- molecule: "COc1ccc2[nH]c(=O)c(CSc3ccc(Nc4nccc(-c5ccc(Cl)cc5)n4)cc3)cc2c1"
  growth, %: 116
- molecule: "Nc1cc(-c2cccc(C(=O)NCc3ccc4c(c3)OCO4)c2)ccn1"
  growth, %: 98.5
- molecule: "CC(C)(C)c1ccc(NCc2cn(-c3ccc(C(=O)O)cc3)nc2-c2ccc(C#N)cc2)cc1"
  growth, %: 19.7
- molecule: "C[C@H]1[C@H](C)CC[C@]2(COC(=O)CCC(=O)NCC#CCN3CCNCC3)CC[C@]3(C)C(=CC[C@@H]4[C@@]5(C)CCCNC(C)(C)[C@@H]5CC[C@]43C)[C@H]12"
  growth, %: 75.6
- molecule: "CO[C@H]1CSS[C@@H]1Cn1nc(-c2ccc(Oc3ccccc3)cc2)c2c(N)ncnc21"
  growth, %: 61.2

* * *

Tested on: NCI-H226 lung
Test: NCI-60 one-dose screen, 48 h (100 = growth as untreated, 0 = no growth, -100 = all killed)
Conditions: 10 µM
Compounds without any hit were thinned out: in the full panel of roughly 83,000, 20% have a hit.
endpoint: growth (%)

- smilesCode: "CN1CCN(c2ccc(Nc3nc(N4CCN(S(=O)(=O)c5ccc(Cl)cc5)CC4)c4sccc4n3)cc2)CC1"
  unitAnnotation: "%"
  quantitativeResult: -22.2
- smilesCode: "COc1cc(/C=C/C(=O)c2ccc(S(=O)(=O)NCCNc3nc(Nc4ccc(F)cc4)nc(N(C)C)n3)cc2)cc(OC)c1OC"
  unitAnnotation: "%"
  quantitativeResult: -21.6
- smilesCode: "CCOc1ccc2ncc(C#Cc3cncc(C(=O)Nc4ccc(CN5CCN(C)CC5)c(C(F)(F)F)c4)c3)n2n1"
  unitAnnotation: "%"
  quantitativeResult: -59.1
- smilesCode: "OCCCNc1oc(-c2ccccc2)nc1[P+](c1ccccc1)(c1ccccc1)c1ccccc1"
  unitAnnotation: "%"
  quantitativeResult: -5.46
- smilesCode: "CCOP(=O)(OCC)O[C@H]1CC[C@]2(C)[C@H]3CC[C@@H]4[C@@H]([C@](C)(O)CCC=C(C)C)CC[C@@]4(C)[C@]3(C)CC[C@H]2C1(C)C"
  unitAnnotation: "%"
  quantitativeResult: 20.9
- smilesCode: "CC(=O)NNc1ccc2nnc(-c3ccc(Br)cc3)n2n1"
  unitAnnotation: "%"
  quantitativeResult: 87.8
- smilesCode: "O=C(NO)c1ccc(Cn2ccc3c(Nc4ccccc4)ncnc32)cc1"
  unitAnnotation: "%"
  quantitativeResult: 32
- smilesCode: "CCOC(=O)CNC(=O)CN(Cc1ccccc1)C(=O)[C@@]1(C)CCC[C@]2(C)[C@H]3C[C@H]4C(C(C)C)=C[C@]3(CC[C@H]21)[C@@H]1C(=O)OC(=O)[C@@H]14"
  unitAnnotation: "%"
  quantitativeResult: 71.3
